Target: human M2 receptor (Homo sapiens, UniProt P08172)
Sequence (P08172 1-466): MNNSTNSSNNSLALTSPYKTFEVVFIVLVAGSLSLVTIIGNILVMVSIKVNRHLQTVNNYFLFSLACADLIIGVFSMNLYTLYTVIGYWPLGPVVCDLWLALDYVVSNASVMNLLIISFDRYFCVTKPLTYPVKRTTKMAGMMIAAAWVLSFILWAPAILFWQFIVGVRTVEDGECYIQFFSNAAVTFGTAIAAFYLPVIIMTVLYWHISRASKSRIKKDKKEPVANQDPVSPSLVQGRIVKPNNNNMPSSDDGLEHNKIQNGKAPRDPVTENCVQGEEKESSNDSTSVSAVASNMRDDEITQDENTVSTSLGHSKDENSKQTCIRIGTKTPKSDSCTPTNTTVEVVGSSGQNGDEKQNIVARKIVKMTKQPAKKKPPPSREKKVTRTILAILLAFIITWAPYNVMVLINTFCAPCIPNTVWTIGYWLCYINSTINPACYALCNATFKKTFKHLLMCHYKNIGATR
Conditions: Receptor activity EC50, M2-GIRK1/4 activation test, acetylcholine at EC20; allosteric potency; in some cases mean values from two or more determinations
measurement kind: EC50 (nM)

Please review the following examples before continuing.
molecule=O=C(NC12CC3CC(CC(C3)C1)C2)c1cn(-c2ccc(F)cc2F)c2nc(N3CCCC(F)(F)C3)ccc2c1=O measurement_kind=EC50 quantity_unit=nM assay_value=14
molecule="CCCC(NC(=O)c1cn(-c2ccc(F)cc2F)c2nc(NCC(F)F)ccc2c1=O)C(F)(F)F (stereo not shown)" measurement_kind=EC50 quantity_unit=nM assay_value=155
molecule="CC[C@@H](NC(=O)c1cn(-c2ccc(F)cc2F)c2nc(N3CCC(O)C3=O)ccc2c1=O)C(F)(F)F (mixture of isomers) [Example 224]" measurement_kind=EC50 quantity_unit=nM assay_value=157

[I] CC[C@@H](NC(=O)c1cn(-c2ccc(F)cc2F)c2nc(N3CC(O)C3)ccc2c1=O)C(F)(F)F
[II] CC[C@@H](NC(=O)c1cn(-c2ccc(F)cc2F)c2nc(N3C[C@@H](C(=O)OC)OC3=O)ccc2c1=O)C(F)(F)F
[III] CC[C@@H](NC(=O)c1cn(-c2ccc(F)cc2F)c2nc(N3CCN(C)C3=O)ccc2c1=O)C(F)(F)F
[IV] CN(C)c1ccc2c(=O)c(C(=O)NC34CCC(C)(CC3)CC4)cn(-c3ccc(F)cc3F)c2n1
In: Put these in order: smallest EC50 first, largest last. Lab note: final answer is the ordered label list.
Out: IV, III, I, II
(IV: 17 nM, III: 43 nM, I: 75 nM, II: 138 nM)

----------
Target: human M2 receptor (Homo sapiens)
Details: Receptor activity EC50, M2-GIRK1/4 activation test, acetylcholine at EC20; allosteric potency; in some cases mean values from two or more determinations
measurement kind: EC50 (nM)

# annotated cases, reported EC50 shown
molecule=O=C(NC12CC3CC(CC(C3)C1)C2)c1cn(-c2ccc(F)cc2F)c2nc(N3CCC(O)(O)[C@H](F)C3)ccc2c1=O system_under_test="human M2 receptor (Homo sapiens)" measurement_kind=EC50 assay_value=34
molecule=CC[C@@H](NC(=O)c1cn(-c2c(F)cc(F)cc2F)c2nc(N3C[C@@H](O)CC3=O)ccc2c1=O)C(F)(F)F system_under_test="human M2 receptor (Homo sapiens)" measurement_kind=EC50 assay_value=7
molecule=CC[C@H](NC(=O)c1cn(-c2c(F)cccc2F)c2nc(N3C[C@@H](O)CC3=O)ccc2c1=O)C(F)(F)F system_under_test="human M2 receptor (Homo sapiens)" measurement_kind=EC50 assay_value=31
molecule="O=C(N[C@H](c1ccccc1Cl)C(F)(F)F)c1cn(-c2ccc(F)cc2F)c2nc(N3CCCC(O)C3=O)ccc2c1=O (single isomer, unassigned) [Example 207]" system_under_test="human M2 receptor (Homo sapiens)" measurement_kind=EC50 assay_value=35
molecule="CC(NC(=O)c1cn(-c2ccc(F)cc2F)c2nc(N(C)CC(F)F)ccc2c1=O)C(F)(F)F (racemic)" system_under_test="human M2 receptor (Homo sapiens)" measurement_kind=EC50 assay_value=141

[1] O=C(N[C@@H](C1CC1)C(F)(F)F)c1cn(-c2c(F)cccc2Cl)c2nc(N3C[C@@H](O)CC3=O)ccc2c1=O
[2] CN(C)c1ccc2c(=O)c(C(=O)Nc3ccccc3C(F)(F)F)cn(-c3ccc(F)cc3F)c2n1
In: Recorded EC50 values differ for 1 and 2 ; which one is higher? API: response body contains the label of the selected item.
Out: 2

----------
Target: UniProt P08172
Sequence (P08172 1-466): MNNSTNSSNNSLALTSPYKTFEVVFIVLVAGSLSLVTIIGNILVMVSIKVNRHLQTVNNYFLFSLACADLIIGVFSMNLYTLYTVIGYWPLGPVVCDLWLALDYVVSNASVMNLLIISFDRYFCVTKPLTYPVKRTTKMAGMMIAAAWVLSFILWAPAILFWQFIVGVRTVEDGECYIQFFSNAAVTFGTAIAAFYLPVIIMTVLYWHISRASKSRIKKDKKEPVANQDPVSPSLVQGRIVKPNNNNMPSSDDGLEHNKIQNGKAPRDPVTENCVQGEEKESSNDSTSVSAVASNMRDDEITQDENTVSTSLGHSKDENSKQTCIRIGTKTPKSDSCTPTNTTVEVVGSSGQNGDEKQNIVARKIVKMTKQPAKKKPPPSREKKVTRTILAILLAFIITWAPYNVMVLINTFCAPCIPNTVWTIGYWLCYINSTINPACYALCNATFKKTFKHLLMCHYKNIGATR
Format: cell-based
Conditions: shift in the acetylcholine dose-response curve (Allosteric EC50 shift, GraphPad PRISM); α >1 = positive cooperativity
measurement kind: Cooperativity (alpha factor)

molecule="CN(C)c1ccc2c(=O)c(C(=O)NC(C(C)(C)C)C(F)(F)F)cn(-c3ccc(F)cc3F)c2n1 (stereo in doubt)" system_under_test="UniProt P08172" assay_value=7
molecule="O=C(NC(C1CC1)C(F)(F)F)c1cn(-c2c(F)cccc2F)c2nc(N3C[C@@H](O)CC3=O)ccc2c1=O (mixture of isomers)" system_under_test="UniProt P08172" assay_value=71
molecule=CC[C@@H](NC(=O)c1cn(-c2ccc(F)cc2F)c2nc(N3CC[C@H](F)C3)ccc2c1=O)C(F)(F)F system_under_test="UniProt P08172" assay_value=24
molecule=CC[C@@H](NC(=O)c1cn(-c2ccc(F)cc2F)c2nc(N3CC(O)(C(F)(F)F)C3)ccc2c1=O)C(F)(F)F system_under_test="UniProt P08172" assay_value=27

[A] CC[C@@H](NC(=O)c1cn(-c2ccc(F)cc2F)c2nc(N3CC4CC4(O)C3)ccc2c1=O)C(F)(F)F (single isomer, unassigned) [Example 314]
[B] CC[C@@H](NC(=O)c1cn(-c2ccc(F)cc2F)c2nc(N3CC(C)CC3=O)ccc2c1=O)C(F)(F)F (mixture of isomers)
In: Look at A and B . Which one has the lower recorded Cooperativity (alpha factor) number? Write down the label attached to your selection.
Out: B
(B: 12, A: 24)

----------
Target: human M2 receptor (Homo sapiens, UniProt P08172)
Type: cell-based
Conditions: shift of acetylcholine dose-response curve (Allosteric EC50 shift); α >1 = positive cooperativity
measurement kind: Cooperativity (alpha factor)

compound="O=C(N[C@@H](C1CC1)C(F)(F)F)c1cn(-c2c(F)cc(F)cc2F)c2nc(N3C[C@@H](O)[C@H](O)C3)ccc2c1=O [Example 590]" assay_value=43
compound="CCC(NC(=O)c1cn(-c2c(F)cc(F)cc2F)c2nc(N3C[C@@H](O)[C@H](O)C3)ccc2c1=O)C(F)(F)C(F)(F)F (single isomer, unassigned) [Example 524]" assay_value=60
compound="CC(C)C(NC(=O)c1cn(-c2c(F)cc(F)cc2F)c2nc(N3CCNC3=O)ccc2c1=O)C(F)(F)F (racemic) [Example 538]" assay_value=40
compound="O=C(NC(CC(F)(F)F)C(F)(F)F)c1cn(-c2c(F)cc(F)cc2F)c2nc(N3C[C@@H](O)CC3=O)ccc2c1=O (single isomer, unassigned) [Example 607]" assay_value=32
compound="CCC(NC(=O)c1cn(-c2ccc(F)cc2F)c2nc(N3C[C@@H](O)CC3=O)ccc2c1=O)C(F)(F)C(F)(F)F (single isomer, unassigned) [Example 557]" assay_value=44
compound="O=C(N[C@H](C1CC1)C(F)(F)F)c1cn(-c2c(F)cc(F)cc2Cl)c2nc(N3C[C@@H](O)CC3=O)ccc2c1=O [Example 414]" assay_value=40

----------
Target: human M2 receptor (Homo sapiens)
Settings: Receptor activity EC50, M2-GIRK1/4 activation test, acetylcholine at EC20; allosteric potency; in some cases mean values from two or more determinations
measurement kind: EC50 (nM)

Field: example entries. Status: answers known.
compound="CC[C@@H](NC(=O)c1cn(-c2ccc(F)cc2F)c2nc(N3CC4C(C3)C4(F)F)ccc2c1=O)C(F)(F)F (stereo partly drawn) [Example 28]" assay_value=23
compound="O=C(NC(C1CC1)C(F)(F)F)c1cn(-c2ccc(F)cc2F)c2nc(N3C[C@@H](O)CC3=O)ccc2c1=O (mixture of isomers) [Example 283]" assay_value=40
compound="CC[C@@H](NC(=O)c1cn(-c2ccc(F)cc2F)c2nc(N3CCCC3)ccc2c1=O)C(F)(F)F [Example 192]" assay_value=54
compound="O=C(NC12CC3CC(CC(C3)C1)C2)c1cn(-c2ccc(F)cc2F)c2nc(N3CCC(F)CC3)ccc2c1=O [Example 5]" assay_value=31
compound="CN(CCO)c1ccc2c(=O)c(C(=O)NC34CC5CC(CC(C5)C3)C4)cn(-c3ccc(F)cc3F)c2n1 [Example 82]" assay_value=60
compound="C[C@H](NC(=O)c1cn(-c2c(F)cc(F)cc2F)c2nc(N3CC4CC4(O)C3)ccc2c1=O)C(F)(F)F (single isomer, unassigned) [Example 318]" assay_value=14
compound="O=C(NC(C(F)(F)F)C(F)(F)F)c1cn(-c2ccc(F)cc2F)c2nc(NCCF)ccc2c1=O [Example 89]" assay_value=413
compound="CCCC(NC(=O)c1cn(-c2ccc(F)cc2F)c2nc(N3CC[C@H](F)C3)ccc2c1=O)C(F)(F)F (stereo partly drawn) [Example 66]" assay_value=10

[P] O=C(NC(c1c(F)cccc1F)C(F)(F)F)c1cn(-c2ccc(F)cc2F)c2nc(N3CCC(O)CC3=O)ccc2c1=O (racemic) [Example 252]
[Q] CC[C@@H](NC(=O)c1cn(-c2ccc(F)cc2F)c2nc(N3CC(C)OC3=O)ccc2c1=O)C(F)(F)F (mixture of isomers) [Example 266]
In: Consider P and Q . Which of these has its EC50 at a higher number? Indicate which entry you chose by stating its label.
Out: Q
(Q: 743 nM, P: 109 nM)

[a] O=C(NC12CC(C(F)(F)F)(C1)C2)c1cn(-c2c(F)cc(F)cc2F)c2nc(N3C[C@@H](O)CC3=O)ccc2c1=O [Example 372]
[b] CC[C@@H](NC(=O)c1cn(-c2ccc(F)cc2F)c2nc(N3C[C@@H](F)C[C@H]3C)ccc2c1=O)C(F)(F)F [Example 31]
[c] COCC(C)(NC(=O)c1cn(-c2ccc(F)cc2F)c2nc(N3C[C@@H](O)CC3=O)ccc2c1=O)C(F)(F)F (stereo partly drawn) [Example 236]
[d] O=C1CN(c2ccc3c(=O)c(C(=O)NC45CC6CC(CC(C6)C4)C5)cn(-c4ccc(F)cc4F)c3n2)CCN1 [Example 18]
[e] CC[C@H](NC(=O)c1cn(-c2ccc(F)cc2F)c2nc(N3C[C@H](C(=O)OC)OC3=O)ccc2c1=O)C(F)(F)F [Example 259]
In: Order field: EC50 | Direction: descending (largest first) Provide the ranking by listing each label in its place in the requested order.
Out: c, e, d, b, a

[I] CC[C@H](NC(=O)c1cn(-c2c(F)cc(F)cc2F)c2nc(N3CCNC3=O)ccc2c1=O)C(F)(F)F [Example 343]
[II] CC1(F)CCN(c2ccc3c(=O)c(C(=O)NC45CC6CC(CC(C6)C4)C5)cn(-c4ccc(F)cc4F)c3n2)C1 (racemic) [Example 9]
[III] CC[C@H](NC(=O)c1cn(-c2ccc(F)cc2F)c2nc(N3CC=CC3=O)ccc2c1=O)C(F)(F)F [Example 286]
In: Arrange the 3 entries by EC50 so the values rise. In your reply, arrange the labels in the requested order.
Out: I, II, III
